FYI, the data here is from ChEMBL document CHEMBL2203000.

Target: Receptor-type tyrosine-protein kinase FLT3 (Homo sapiens)
Sequence (P36888 whole entry): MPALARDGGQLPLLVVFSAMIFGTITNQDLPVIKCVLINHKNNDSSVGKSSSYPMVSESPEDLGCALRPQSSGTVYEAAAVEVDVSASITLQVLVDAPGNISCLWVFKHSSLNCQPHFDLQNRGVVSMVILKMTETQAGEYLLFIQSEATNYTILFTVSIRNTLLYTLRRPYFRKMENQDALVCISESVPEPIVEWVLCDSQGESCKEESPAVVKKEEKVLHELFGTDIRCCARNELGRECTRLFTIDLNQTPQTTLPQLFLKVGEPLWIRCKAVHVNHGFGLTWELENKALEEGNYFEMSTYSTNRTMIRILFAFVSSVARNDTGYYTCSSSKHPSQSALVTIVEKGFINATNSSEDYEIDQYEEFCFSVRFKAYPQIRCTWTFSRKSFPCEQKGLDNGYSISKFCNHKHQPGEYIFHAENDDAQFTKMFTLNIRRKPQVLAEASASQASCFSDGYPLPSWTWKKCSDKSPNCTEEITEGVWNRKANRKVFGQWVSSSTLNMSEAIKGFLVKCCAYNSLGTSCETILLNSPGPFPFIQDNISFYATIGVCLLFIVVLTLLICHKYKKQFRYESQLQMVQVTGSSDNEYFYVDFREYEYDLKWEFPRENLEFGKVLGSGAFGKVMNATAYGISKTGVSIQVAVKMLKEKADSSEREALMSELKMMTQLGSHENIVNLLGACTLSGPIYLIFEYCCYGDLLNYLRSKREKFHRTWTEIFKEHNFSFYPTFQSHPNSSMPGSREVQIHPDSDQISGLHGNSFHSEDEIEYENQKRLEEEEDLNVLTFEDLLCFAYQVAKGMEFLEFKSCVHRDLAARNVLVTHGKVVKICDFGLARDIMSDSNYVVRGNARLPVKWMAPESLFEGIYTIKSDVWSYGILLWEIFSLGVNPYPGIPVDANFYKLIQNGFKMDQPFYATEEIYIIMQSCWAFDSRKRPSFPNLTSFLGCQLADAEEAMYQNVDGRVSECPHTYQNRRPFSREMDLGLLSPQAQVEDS
Assay: Inhibition of FLT3 phosphorylation in human MV4-11 cells
READOUT_NAME: IC50 (nM)
Lab book: enter the figure in nM, no units written.

Reported IC50 for CCN1C(C)(C)CC(Oc2ccc(C(=O)Nc3ccc(NC(=O)Nc4cc(C(C)(C)C)on4)cc3)nc2)CC1(C)C was 2

###

Test: Aqueous solubility of the compound at pH 2 to 7.4
Format: physicochemical
Conditions: buffer
READOUT_NAME: solubility

Reported solubility for CC(C)(C)c1cc(NC(=O)Nc2ccc(NC(=O)c3cc4ccccc4cn3)cc2)no1 was < 5 µg/mL

###

Test: Aqueous solubility of the compound in water
Type: physicochemical
READOUT_NAME: solubility

{"COMPOUND": "CCN1CCC(Oc2ccc(C(=O)Nc3ccc(NC(=O)Nc4cc(C(C)(C)C)on4)cc3)nc2)CC1.CS(=O)(=O)O", "RESULT": "1130 µg/mL"}

Reported solubility for CN1C(C)(C)CC(Oc2ccc(C(=O)Nc3ccc(NC(=O)Nc4cc(C(C)(C)C)on4)cc3)nc2)CC1(C)C.CS(=O)(=O)O was > 1000 µg/mL

Reported solubility for CCN1C(C)(C)CC(Oc2ccc(C(=O)Nc3ccc(NC(=O)Nc4cc(C(C)(C)C)on4)cc3)nc2)CC1(C)C.CS(=O)(=O)O was > 1000 µg/mL
